Assay: self-splicing fitness, log relative to wild type (ln ratio); higher = more splicing; Tetrahymena group I intron in knt gene, E. coli kanamycin selection, DiMSum; sequences stand for … in CUCUCU…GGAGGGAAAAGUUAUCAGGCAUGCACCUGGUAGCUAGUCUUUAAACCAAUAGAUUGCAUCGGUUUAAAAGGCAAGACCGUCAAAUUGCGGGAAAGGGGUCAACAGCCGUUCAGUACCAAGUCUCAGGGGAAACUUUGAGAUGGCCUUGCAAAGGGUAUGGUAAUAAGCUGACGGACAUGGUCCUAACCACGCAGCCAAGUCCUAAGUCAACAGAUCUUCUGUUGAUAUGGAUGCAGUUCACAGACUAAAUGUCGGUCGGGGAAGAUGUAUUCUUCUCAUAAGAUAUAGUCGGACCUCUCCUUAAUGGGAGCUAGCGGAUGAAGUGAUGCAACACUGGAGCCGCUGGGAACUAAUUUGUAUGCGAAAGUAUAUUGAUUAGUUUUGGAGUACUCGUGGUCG;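 note: selection with 25 µg/mL kanamycin versus none on LB agar overnight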
Condition Notes: 37 °C
Measurement Label: self-splicing fitness (ln)

Look over these answered cases.
AAGUAGCAAUAUUACGGAGC :: -1.35
AUCCAGCAAUAUUACGCCCC :: 0.691
UGAGAGCAAUAUUACGCGAU :: -2.24
GUGUAGCAAUAUUACGAACG :: -0.988
GUGUAGCAAUAUUACGGGGU :: -2.63

The reported self-splicing fitness (ln) of the sequence AAGCAGCAAUAUUACGUAUG was -2.63

---

Assay: self-splicing fitness, log relative to wild type (ln ratio); higher = more splicing; Tetrahymena group I intron in knt gene, E. coli kanamycin selection, DiMSum; sequences stand for … in CUCUCU…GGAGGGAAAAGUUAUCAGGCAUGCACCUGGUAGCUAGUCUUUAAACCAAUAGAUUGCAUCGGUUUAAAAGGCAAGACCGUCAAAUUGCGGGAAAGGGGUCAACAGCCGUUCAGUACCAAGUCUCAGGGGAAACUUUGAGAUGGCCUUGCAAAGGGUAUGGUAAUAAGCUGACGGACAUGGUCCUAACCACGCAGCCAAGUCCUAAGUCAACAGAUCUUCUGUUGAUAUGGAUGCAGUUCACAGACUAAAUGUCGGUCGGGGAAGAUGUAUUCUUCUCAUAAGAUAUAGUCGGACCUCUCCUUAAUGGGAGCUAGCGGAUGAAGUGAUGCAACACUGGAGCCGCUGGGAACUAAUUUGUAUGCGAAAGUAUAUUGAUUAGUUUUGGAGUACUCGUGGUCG
Condition Notes: 37 °C
Measurement Label: self-splicing fitness (ln)
Output spec: single numeric token, no unit.

Please review the entries below; each comes with its answer.
GCCAAGCAAUAUUACGGGUA :: -0.102
GGCUAGCAAUAUUACGCUGU :: -1.19
CAGAAGCAAUAUUACGACUG :: -2.48

Reported self-splicing fitness (ln) ( UUUUAGCAAUAUUACGUUAU ) = -1.73

self-splicing fitness (ln) reading for UGAGAGCAAUAUUACGUGCG : -1.42

Lab note: measured self-splicing fitness (ln) of UAAGAGCAAUAUUACGCACG was -1.84

---

Assay: self-splicing fitness, log relative to wild type (ln ratio); higher = more splicing; Tetrahymena group I intron in knt gene, E. coli kanamycin selection, DiMSum; sequences stand for … in CUCUCU…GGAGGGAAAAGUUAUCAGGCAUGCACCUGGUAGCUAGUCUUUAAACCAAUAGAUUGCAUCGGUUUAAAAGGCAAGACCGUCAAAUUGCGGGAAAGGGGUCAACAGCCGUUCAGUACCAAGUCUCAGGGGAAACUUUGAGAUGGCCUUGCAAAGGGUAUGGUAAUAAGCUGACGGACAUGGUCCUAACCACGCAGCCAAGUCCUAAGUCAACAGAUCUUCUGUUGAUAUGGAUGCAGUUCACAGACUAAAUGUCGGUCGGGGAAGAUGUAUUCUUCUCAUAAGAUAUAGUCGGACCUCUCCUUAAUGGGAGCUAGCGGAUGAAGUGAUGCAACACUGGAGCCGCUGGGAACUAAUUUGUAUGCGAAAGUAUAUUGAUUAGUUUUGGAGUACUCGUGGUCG
Condition Notes: 30 °C
Measurement Label: self-splicing fitness (ln)

UACUAGCAAUAUUACGAUGA :: -0.469
CGUCAGCAAUAUUACGCGUC :: -2.38

Now turn to the next sequence.
Noted for UAUGAGCAAUAUUACGCUCG : its self-splicing fitness (ln) reads -2.09

---

sequences and their reported self-splicing fitness (ln)
Assay: self-splicing fitness, log relative to wild type (ln ratio); higher = more splicing; Tetrahymena group I intron in knt gene, E. coli kanamycin selection, DiMSum; sequences stand for … in CUCUCU…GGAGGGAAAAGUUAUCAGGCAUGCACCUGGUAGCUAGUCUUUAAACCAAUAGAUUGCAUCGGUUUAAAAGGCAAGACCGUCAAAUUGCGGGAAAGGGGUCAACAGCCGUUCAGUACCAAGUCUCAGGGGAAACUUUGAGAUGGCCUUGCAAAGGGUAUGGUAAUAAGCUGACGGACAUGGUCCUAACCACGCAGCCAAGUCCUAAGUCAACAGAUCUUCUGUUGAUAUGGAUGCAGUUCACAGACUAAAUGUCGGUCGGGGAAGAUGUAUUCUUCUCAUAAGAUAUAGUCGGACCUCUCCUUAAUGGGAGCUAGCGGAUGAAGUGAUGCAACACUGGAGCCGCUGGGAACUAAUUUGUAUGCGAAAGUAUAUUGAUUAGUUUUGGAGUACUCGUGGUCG
Condition Notes: 30 °C
Lab note: jot the number down without any unit.

Looking up UGUUAGCAAUAUUACGCGGA , I see its self-splicing fitness (ln) listed as -0.526

---

Assay: self-splicing fitness, log relative to wild type (ln ratio); higher = more splicing; Tetrahymena group I intron in knt gene, E. coli kanamycin selection, DiMSum; sequences stand for … in CUCUCU…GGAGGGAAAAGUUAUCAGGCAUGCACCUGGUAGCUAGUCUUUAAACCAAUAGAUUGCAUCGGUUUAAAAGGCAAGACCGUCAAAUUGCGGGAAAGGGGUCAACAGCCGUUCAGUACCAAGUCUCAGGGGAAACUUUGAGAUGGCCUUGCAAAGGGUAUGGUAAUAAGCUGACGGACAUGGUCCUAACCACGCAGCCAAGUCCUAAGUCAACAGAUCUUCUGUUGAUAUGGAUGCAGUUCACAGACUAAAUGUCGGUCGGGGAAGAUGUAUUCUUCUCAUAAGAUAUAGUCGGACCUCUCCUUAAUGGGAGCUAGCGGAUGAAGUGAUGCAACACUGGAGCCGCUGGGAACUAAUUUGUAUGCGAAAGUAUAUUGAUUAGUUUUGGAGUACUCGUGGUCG
Condition Notes: 37 °C
Listing of entries alongside the reported self-splicing fitness (ln).
# print the numeric value only

Solved entries:
UAAUAGCAAUAUUACGCCAU :: -1.55
AGGUAGCAAUAUUACGAAGA :: -1.83

Quick note, self-splicing fitness (ln) for CGCGAGCAAUAUUACGUACG landed at -1.5

Please fill in: self-splicing fitness (ln) reported for AGUGAGCAAUAUUACGAUUU = -1.12

Please fill in: self-splicing fitness (ln) reported for UUGGAGCAAUAUUACGCUCA = -1.53

get_value(item= AGACAGCAAUAUUACGAACA , readout=self-splicing fitness (ln)) returns -0.502

The recorded self-splicing fitness (ln) for UACGAGCAAUAUUACGACCU is -1.82

The reported self-splicing fitness (ln) of the sequence AAACAGCAAUAUUACGUCCU was 0.347

Form field self-splicing fitness (ln), entry GUGCAGCAAUAUUACGUUAC : -2.93

In plain terms, GAUAAGCAAUAUUACGCUCU has a documented self-splicing fitness (ln) of -0.116

Lab note: UUACAGCAAUAUUACGAGUU gave self-splicing fitness (ln) of -2.18

Please fill in: self-splicing fitness (ln) reported for CGGCAGCAAUAUUACGGAAG = -0.442

The reported value for ACUGAGCAAUAUUACGUCAU in terms of self-splicing fitness (ln) is -2.26

// UUACAGCAAUAUUACGAUCA : self-splicing fitness (ln) value = -0.133

Value of self-splicing fitness (ln) reported for the sequence GUAGAGCAAUAUUACGAUUU is -0.037

---

Assay: self-splicing fitness, log relative to wild type (ln ratio); higher = more splicing; Tetrahymena group I intron in knt gene, E. coli kanamycin selection, DiMSum; sequences stand for … in CUCUCU…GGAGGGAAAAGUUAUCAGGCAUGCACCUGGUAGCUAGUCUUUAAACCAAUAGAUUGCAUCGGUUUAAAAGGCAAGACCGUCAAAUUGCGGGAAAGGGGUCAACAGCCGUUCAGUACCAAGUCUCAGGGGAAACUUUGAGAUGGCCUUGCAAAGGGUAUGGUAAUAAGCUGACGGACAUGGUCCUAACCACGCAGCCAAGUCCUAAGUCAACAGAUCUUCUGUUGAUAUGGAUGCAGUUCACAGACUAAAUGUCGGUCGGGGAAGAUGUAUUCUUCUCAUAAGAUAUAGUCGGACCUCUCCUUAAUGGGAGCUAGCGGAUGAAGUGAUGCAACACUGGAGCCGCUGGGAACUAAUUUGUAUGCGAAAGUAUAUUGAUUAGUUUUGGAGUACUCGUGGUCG
Condition Notes: 30 °C
Catalogue of self-splicing fitness (ln) readings, one per entry.

Consider the worked cases shown below.
UUGUAGCAAUAUUACGUUCU :: -2.42
UGGGAGCAAUAUUACGCCGG :: -2.45

Record summary for AGGAAGCAAUAUUACGCGCU : reported self-splicing fitness (ln) = -1.01

Hey, just so you know, these numbers are from the supplement of paper PMC7877785.
